Hey, just so you know, these numbers are from ChEMBL document CHEMBL1128357.

experimentalProtocol: Solubility in water at room temperature
Assay type: physicochemical
measurementContext: read-out: S
# solubility annotations

molecule	resultUnits	solubility
NC(Cc1ccc(B(O)O)cc1)C(=O)NC(COC(CO)CO)COC(CO)CO (centres undefined)	mM	1200
NC(Cc1ccc(B(O)O)cc1)C(=O)O (centres undefined)	mM	7.7
NC(Cc1ccc(B(O)O)cc1)C(=O)NC(CO)CO (centres undefined)	mM	660
NC(Cc1ccc(B(O)O)cc1)C(=O)NCCO (centres undefined)	mM	600
